# credit: PubChem BioAssay (NCI)

assay: NCI Yeast Anticancer Drug Screen. Data for the cln2 rad14 strain (AID 165);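 note: 0% = growth equal to vehicle treated cultures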; details: S. cerevisiae cln2 rad14 strain, at 5.0 µM (retest, dose inferred, filed as 0.5), stronger effect = higher value
Compounds without any hit were thinned out: in the full panel of roughly 79,000, 15% have a hit.
Endpoint Label: growth inhibition (%)
Give just the number in %; leave the unit off.

// known answers, use as guide
molecule=Cc1ccc(NC(=S)SCc2ccc3c(c2)OCO3)cc1Cl endpoint_label="growth inhibition" unit=% value=-7
molecule=CCc1nc(N)nc(N)c1-c1ccc(NCCCN)c([N+](=O)[O-])c1 endpoint_label="growth inhibition" unit=% value=-15
molecule="CCOC(=O)C(NNc1ccccc1)C(c1ccccc1)[P+](c1ccccc1)(c1ccccc1)c1ccccc1 (stereo unspecified)" endpoint_label="growth inhibition" unit=% value=59
molecule=O=C(CCC(O)(c1ccccc1)c1ccccc1)c1ccccc1 endpoint_label="growth inhibition" unit=% value=-89
molecule="CC12CCC(O)CC1=CCC1C2CCC2(C)C(NC(=O)C(Cc3ccc(O)cc3)NC(=O)OCc3ccccc3)CCC12 (stereo unspecified)" endpoint_label="growth inhibition" unit=% value=21
molecule=c1ccc2c(c1)Cc1c-2nc2ccccc2c1N1CCOCC1 endpoint_label="growth inhibition" unit=% value=18

Lookup: Recall and state the measured growth inhibition for COc1cc2c(cc1O)C(O)CCCC2 (stereo unspecified) .
Found: -52

Lookup: Recall and state the measured growth inhibition for FC(F)(F)c1cccc(Nc2ccc3cnc4ccccc4c3c2)c1 .
Found: -5

Lookup: Recall and state the measured growth inhibition for O=C1c2c(Br)sc(Br)c2[C@@H](NC(=O)C(F)(F)F)C1Br (stereo partly specified) .
Found: -1

Lookup: Recall and state the measured growth inhibition for CCOP(=O)(OCC)/C(C#N)=C/c1ccc(C(F)(F)F)cc1 .
Found: 12

Lookup: Recall and state the measured growth inhibition for CN(C)NC(=S)C(F)(F)F .
Found: -4

* * *

Experiment: NCI Yeast Anticancer Drug Screen. Data for the sgs1 mgt1 strain (AID 161);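 note: 0% = growth of cultures given vehicle only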
Details: S. cerevisiae sgs1 mgt1 strain, at 50.0 µM (retest, dose inferred, filed as 5.0), stronger effect = higher value
Procedure: Growth inhibition of yeast strains with defined genetic alterations is measured as a screen for potential anti-cancer activity. Selected strains with alterations in DNA damage repair or cell cycle control were exposed to compounds and growth inhibition was measured relative to vehicle treated controls. The strain used in this assay is sgs1 mgt1
The panel holds about 79,000 compounds, 15% with a hit somewhere; the sample as a whole holds those more often.
Would you mind labelling by growth inhibition? At or over 70% is Condition met, under is Condition not met.

compound="Cc1ccc(S(=O)(=O)CC2(Br)CCc3ccccc3C2=O)cc1 (stereo not given)" category="Condition met"
compound=COc1ccc(CSC(=S)Nc2ccccc2C(F)(F)F)cc1 category="Condition met"
compound=O=[N+]([O-])/C(=C\c1cccs1)c1ccccc1 category="Condition met"
compound="CC1OC(CC(=O)O)Cc2c1c(O)c1c(O)cc(-c3cc(=O)c4c(=O)c5c(c(=O)c=4c3=O)CC(CC(=O)O)OC5C)c(O)c1c2O (stereo not given)" category="Condition not met"
compound="Cn1cc(CCC(=O)C2C=CC=CC2=NC(=O)CCCl)c2ccccc21 (stereo not given)" category="Condition not met"

Lookup: Check the entry COC(=O)NNc1c([N+](=O)[O-])cnn(-c2ccccc2)c1=O : does growth inhibition equal or exceed 70%?
Found: Condition not met

Lookup: Check the entry Cc1cccc(CC(C)(C)C)c1NC(=O)C(=O)C(C(=O)c1ccc2ccccc2c1)C1OC(=O)c2ccccc21 (stereo not given) : does growth inhibition equal or exceed 70%?
Found: Condition met

Lookup: Check the entry c1ccc(OCCN2CCN(CCOc3ccccc3)CC2)cc1 : does growth inhibition equal or exceed 70%?
Found: Condition not met

Lookup: Check the entry Cc1cc(N(CCCOS(C)(=O)=O)CCCOS(C)(=O)=O)ccc1C=Nc1cc(Br)c(O)c(Br)c1 : does growth inhibition equal or exceed 70%?
Found: Condition not met

Lookup: Check the entry O=C1c2ccccc2C(=O)c2sc(Nc3cc(Cl)ccc3Cl)nc21 : does growth inhibition equal or exceed 70%?
Found: Condition met
